assayed target: recombinant human HDAC-1 enzyme (rHDAC-1) (Homo sapiens)
Construct: made in house; host or cells: Baculovirus insect cell expression system
Sequence (Q13547 whole entry): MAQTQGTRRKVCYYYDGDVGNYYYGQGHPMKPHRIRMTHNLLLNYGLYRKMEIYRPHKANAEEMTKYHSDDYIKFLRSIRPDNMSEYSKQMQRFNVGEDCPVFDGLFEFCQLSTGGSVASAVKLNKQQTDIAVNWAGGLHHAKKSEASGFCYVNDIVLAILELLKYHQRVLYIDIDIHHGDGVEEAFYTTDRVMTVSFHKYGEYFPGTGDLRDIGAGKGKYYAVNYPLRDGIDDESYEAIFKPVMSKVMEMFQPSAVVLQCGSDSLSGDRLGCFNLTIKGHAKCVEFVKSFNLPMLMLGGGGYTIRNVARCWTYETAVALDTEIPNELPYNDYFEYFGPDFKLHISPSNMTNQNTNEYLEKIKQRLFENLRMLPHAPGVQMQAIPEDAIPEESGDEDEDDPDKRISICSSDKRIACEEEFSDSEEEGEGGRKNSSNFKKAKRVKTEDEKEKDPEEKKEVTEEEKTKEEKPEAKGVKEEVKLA
measurement protocol: Histone deacetylase inhibition, recombinant human HDAC-1
Type: biochemical
pIC50: −log10 of the molar value.

{"compound": "O=C(CCCCCNCc1ccc2ccccc2c1)NO [Compound 223]", "pIC50": 5.70}

----------
assayed target: recombinant human HDAC-1 enzyme (rHDAC-1) (Homo sapiens)
Construct: made in house; host or cells: Baculovirus insect cell expression system
measurement protocol: Histone deacetylase inhibition, recombinant human HDAC-1
Assay type: biochemical
applied conditions: cloned recombinant human HDAC-1, Baculovirus insect cell expression; read-out: rHDAC-1 IC50
Class definitions on IC50: low range (below 90 nM), mid range (90 nM to below 1000 nM), high range (1000 nM or more)

{"compound": "O=C(CCCCCCC(=O)c1ccc(Nc2nccs2)cc1)NO [Compound 138e]", "label value": "low range"}
{"compound": "COc1ccc(/C(CCCCCCC(=O)NO)=N/O)cc1", "label value": "low range"}
{"compound": "COc1ccc2cc(C(=O)CCCCCCC(=O)NO)ccc2c1 [Compound 105a]", "label value": "low range"}
{"compound": "CC(C)(C)OC(=O)N(CCCCCC(=O)NO)Cc1ccc2ccccc2c1", "label value": "mid range"}
{"compound": "Nc1ccccc1NC(=O)CCCCCCC(=O)c1ccc(Br)cc1", "label value": "high range"}
{"compound": "Cn1c(C(=O)CCCCCCC(=O)NO)cc2ccccc21", "label value": "low range"}
{"compound": "Nc1ccccc1NC(=O)CCCCS(=O)(=O)CC(=O)c1ccc2ccccc2c1 [Compound 230a]", "label value": "high range"}
{"compound": "CC(=O)SCC(=O)CCCCCC(=O)c1cc2ccccc2s1", "label value": "mid range"}
{"compound": "O=C(NCCCCCC(=O)c1ccc(-c2ccccc2)cc1)Nc1ccccc1O", "label value": "high range"}
{"compound": "CSc1ncccc1C(=O)CCCCCCC(=O)NO [Compound 105b]", "label value": "low range"}
{"compound": "C/C(=C/C(=O)Nc1ccccc1N)CCCCC(=O)c1ccc2ccccc2c1", "label value": "high range"}
{"compound": "Nc1ccccc1NC(=O)CCCCCCC(=O)c1cccc2ccccc12 [Compound 53f]", "label value": "high range"}
{"compound": "O=C(CCCCSCC(=O)c1ccc2ccccc2c1)NO [Compound 226a]", "label value": "low range"}
{"compound": "Nc1ccccc1NC(=O)CCCCCn1nnc2ccccc2c1=O [Compound 239b]", "label value": "high range"}
{"compound": "O=C(CCCCCCC(=O)c1ccccc1)Nc1cccnc1", "label value": "high range"}
{"compound": "Cn1c(C(=O)CCCCCCC(=O)CS)cc2ccccc21", "label value": "mid range"}
{"compound": "COc1ccc(C(=O)C(C)(C)CCCCC(=O)NO)cc1", "label value": "mid range"}
